System: T24
assay.explanation: MTT colorimetric cytotoxicity test, T24
Format: cell-based, humaines
study.conditions: T24, 72 h incubation, read-out: Concentrations inhibitrices (M) encadrant la valeur de la concentration inhibitrice 50 %
measured.quantity: IC50

# lookup: T24 IC50, key = Cc1ccc2nc3c(c(C)c2c1)C(=O)c1ncccc1C3=O [CRL8324]
> 1e-05 M

====

Task for the reader: assign each of the following compounds its reported log10(IC50).
System: 12 lignées tumorales humaines
assay.explanation: MTT colorimetric cytotoxicity test, all 12 tumour cell lines together
Assay type: cell-based
study.conditions: mean calculated from the cytotoxic activity on the 12 tumour cell lines; read-out: Cl 50 (the source's name)
Units before log transform: nM; reported quantity: IC50; transform: log10.

Past entries and their recorded results:
{"compound": "CN(C)c1ccc2nc3c4c(nccc4c2c1)-c1ncccc1C3=O [CRL 8325]", "value": 1.57}
{"compound": "O=C1c2cccnc2-c2nccc3c2c1nc1ccc(NCc2ccccc2)cc13 [CRL 8416]", "value": 1.90}
{"compound": "O=C1c2nccc(Br)c2-c2nc3ccccc3c3ccnc1c23", "value": 1.90}
{"compound": "COc1ccc2nc3c4c(nccc4c2c1)-c1ncccc1C3=O", "value": 1.95}
{"compound": "Nc1ccnc2c1-c1nc3ccccc3c3ccnc(c13)C2=O", "value": 1.32}

Report log10(IC50) for every entry below.
1. CN(C)c1ccc2nc3c4c(nccc4c2c1)-c1ncccc1C3=O [CRL 8407]
2. COc1ccnc2c1C(=O)c1nc3ccc(Br)cc3c3ccnc-2c13

1.34
2.62

Report log10(IC50) for every entry below.
1. Cc1ccc2nc3c4c(nccc4c2c1)-c1ncccc1C3=O
2. O=C1c2cccnc2-c2nccc3c2c1nc1ccc(NCc2ccccc2)cc13 [CRL 8241]

1: 1.78; 2: 2.15

====

System: LoVo
assay.explanation: MTT colorimetric cytotoxicity test, LoVo
Assay type: cell-based, humaines
study.conditions: Homo sapiens, 72 h incubation, read-out: Concentrations inhibitrices (M) encadrant la valeur de la concentration inhibitrice 50 %
measured.quantity: IC50

Tell me IC50 reported for `CC(=O)c1cc(C)ccc1NC1=CC(=O)c2ncccc2C1=O`
> 1e-05 M

====

Tested on: SW1088
assay.explanation: MTT colorimetric cytotoxicity test, SW1088
Assay type: cell-based, humaines
study.conditions: SW1088, 72 h incubation, read-out: Concentrations inhibitrices (M) encadrant la valeur de la concentration inhibitrice 50 %
measured.quantity: IC50

Tell me IC50 reported for `Cc1ccc2nc3c(c(C)c2c1)C(=O)c1ncccc1C3=O`
> 1e-05 M
